From: patent US20230272056A1

- Target desc: T1, human LAP-TGFβ1 (construct not stated) (human, UniProt P01137 30-390)
- T1 construct: also called human LAP-TGFβ isoform 1; titrant
- T1 sequence (P01137 30-390 limits assumed): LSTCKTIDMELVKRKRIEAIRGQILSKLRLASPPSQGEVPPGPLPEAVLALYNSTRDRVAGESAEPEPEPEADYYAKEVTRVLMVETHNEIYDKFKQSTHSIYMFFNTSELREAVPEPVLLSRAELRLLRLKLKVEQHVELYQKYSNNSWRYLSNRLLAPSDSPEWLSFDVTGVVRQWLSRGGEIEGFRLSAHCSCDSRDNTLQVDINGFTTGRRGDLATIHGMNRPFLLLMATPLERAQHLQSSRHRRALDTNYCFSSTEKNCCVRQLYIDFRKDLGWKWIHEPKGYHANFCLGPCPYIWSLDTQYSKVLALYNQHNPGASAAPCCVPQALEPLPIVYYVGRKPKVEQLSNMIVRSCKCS
- Assay summary: KinExA, mAb as constant binding partner
Test readout: Kd (pM)

Binder	Test readout	Value reported
16BLM (antibody, human IgG1, kappa, L234A L235A, V domains shown, IgG1 L234A L235A D265S/kappa; also called 79BLH; 52BMD) VH: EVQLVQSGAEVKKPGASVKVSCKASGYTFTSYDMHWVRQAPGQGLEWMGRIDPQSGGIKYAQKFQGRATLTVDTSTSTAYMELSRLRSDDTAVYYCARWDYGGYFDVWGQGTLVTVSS VL: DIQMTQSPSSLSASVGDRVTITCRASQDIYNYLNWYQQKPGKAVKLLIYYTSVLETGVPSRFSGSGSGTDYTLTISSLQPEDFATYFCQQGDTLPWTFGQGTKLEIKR	Kd	2.75
07BLM (antibody, human IgG1, kappa, L234A L235A, V domains shown, IgG1 L234A L235A D265S/kappa; also called 70BLH; 43BMD) VH: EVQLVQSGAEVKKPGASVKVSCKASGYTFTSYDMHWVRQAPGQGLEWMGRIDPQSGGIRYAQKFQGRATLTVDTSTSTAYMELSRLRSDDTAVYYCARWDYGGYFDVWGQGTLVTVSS VL: DIQMTQSPSSLSASVGDRVTITCRASQDIYSYLNWYQQKPGKAVKLLIYYTSNLETGVPSRFSGSGSGTDYTLTISSLQPEDFATYFCQQGDTLPWTFGQGTKLEIKR	Kd	2.24
11BLM (antibody, human IgG1, kappa, L234A L235A, V domains shown, IgG1 L234A L235A D265S/kappa; also called 74BLH; 47BMD) VH: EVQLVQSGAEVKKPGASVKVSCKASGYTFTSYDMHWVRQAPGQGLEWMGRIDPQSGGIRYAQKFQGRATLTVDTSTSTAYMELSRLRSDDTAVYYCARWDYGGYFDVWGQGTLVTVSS VL: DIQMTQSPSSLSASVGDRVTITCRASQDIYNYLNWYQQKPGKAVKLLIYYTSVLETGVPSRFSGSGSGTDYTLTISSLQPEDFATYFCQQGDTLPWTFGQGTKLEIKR	Kd	1.33
18BLM (antibody, human IgG1, kappa, L234A L235A, V domains shown, IgG1 L234A L235A D265S/kappa; also called 81BLH; 54BMD) VH: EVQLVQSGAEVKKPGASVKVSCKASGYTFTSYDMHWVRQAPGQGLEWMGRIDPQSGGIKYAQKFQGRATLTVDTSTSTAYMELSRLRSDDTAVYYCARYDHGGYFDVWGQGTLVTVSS VL: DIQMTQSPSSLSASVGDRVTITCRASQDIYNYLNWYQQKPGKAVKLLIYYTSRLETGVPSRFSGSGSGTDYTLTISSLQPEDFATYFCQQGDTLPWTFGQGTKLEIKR	Kd	62.1
15BLM (antibody, human IgG1, kappa, L234A L235A, V domains shown, IgG1 L234A L235A D265S/kappa; also called 78BLH; 51BMD) VH: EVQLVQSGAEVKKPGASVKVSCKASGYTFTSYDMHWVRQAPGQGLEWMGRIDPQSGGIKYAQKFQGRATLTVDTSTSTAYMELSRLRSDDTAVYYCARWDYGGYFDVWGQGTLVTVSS VL: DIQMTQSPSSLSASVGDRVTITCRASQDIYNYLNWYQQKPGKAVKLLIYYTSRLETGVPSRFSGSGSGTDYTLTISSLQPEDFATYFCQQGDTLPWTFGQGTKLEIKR	Kd	2.35
